meta.source: patent US20070021434A1

// pIC50 collected for HCV RdRp (NS5B)
pIC50: −log10 of the molar value.
measuredProperty: pIC50

INSERT INTO measurements (compound, measuredproperty, observedmeasurement) VALUES
  ('NCCCC[C@H](NC(=O)Nc1ccc(OCc2ccccc2)cc1)C(=O)NCC1CCCCC1', 'pIC50', '4.30 to 5.00'),
  ('NCCCC[C@H](NC(=O)Nc1ccc(OCc2ccccc2)cc1)C(=O)Nc1cccc2c1CCC2', 'pIC50', '> 5.00'),
  ('CCNCC(=O)NCCCC(NC(=O)OCC1c2ccccc2-c2ccccc21)C(=O)Nc1ccc(C)cc1 (stereo not shown)', 'pIC50', '> 5.00'),
  ('Cc1ccc(NC(=O)[C@H](CCCCN)NC(=O)Nc2ccc(OCc3cccc(F)c3F)cc2)cc1', 'pIC50', '4.30 to 5.00');
